Data provenance is the supplement of paper PMC10567573.

B1: ADD1 (parent)
chain: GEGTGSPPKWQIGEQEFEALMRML

variants of: B1; assay: protein stability index of a GFP-peptide fusion (GPS, HEK-293T) (PSI 1-6); higher = more stable; conditions: c terminus: a fixed tail appended;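 further: lentivirally expressed fusions sorted by FACS into six bins by GFP to DsRed ratio, PSI derived from sequencing read proportions per bin multiplied by bin number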
measurement label: protein stability index
Reply: number alone, nothing else.

Example entries and their recorded answers appear below.
G13F
2.69
R22W
2.2
K9R
3.07
K9N
3.53

(Q) What measured protein stability index goes with I12K ?
(A) 3.03

(Q) // repeat for Q15P and report
(A) 3.51

(Q) Next record, please: G3T
(A) 3.54
